Data origin, for the record: the RepoRT retention time repository (doi:10.3390/metabo9050085)

- experiment notes: Phenomenex Kinetex C18, 150 × 2.1 mm, 1.7 µm, 30 °C, 0.3 mL/min; A: water + 0.1% formic acid; B: acetonitrile + 0.1% formic acid; gradient (min/%B) 0/2 14/100 17/100 17/2 25/2
- conditions: stereoisomer not certain
Measured LC retention time accompanies every entry in the list below.

{"compound": "CC(O)C1CCC2C3CCC4CC(=O)CCC4(C)C3CCC12C (stereo unspecified)", "LC retention time [min]": 13.9}
{"compound": "CC12CCC(=O)C=C1CCC1C2C(O)CC2(C)C(O)CCC12 (stereo unspecified)", "LC retention time [min]": 8.2}
{"compound": "CC12CCC(=O)C=C1CCC1C2C(O)CC2(C)C(C(=O)CO)CCC12 (stereo unspecified)", "LC retention time [min]": 8.81}
{"compound": "CC12CCC(O)CC1=CC(O)C1C2CCC2(C)C(O)CCC12 (stereo unspecified)", "LC retention time [min]": 7.81}
{"compound": "CC12CCC3C(CCC4=CC(=O)CCC43C=O)C1CCC2O (stereo unspecified)", "LC retention time [min]": 8.59}
{"compound": "CC(=O)C1=CCC2C3CCC4=CC(=O)CCC4(C)C3CCC12C (stereo unspecified)", "LC retention time [min]": 12.7}
{"compound": "CC12CCC3c4ccc(O)cc4CCC3C1CC(=O)C2=O (stereo unspecified)", "LC retention time [min]": 7.82}
{"compound": "CC12CCC3C(C(=O)CC4CC(O)CCC43C)C1CCC2=O (stereo unspecified)", "LC retention time [min]": 8}
{"compound": "CC12CCC(O)CC1=CCC1C2CCC2(C)C(O)CCC12 (stereo unspecified)", "LC retention time [min]": 10.8}
{"compound": "COc1cc2c(cc1O)CCC1C2CCC2(C)C(=O)CCC12 (stereo unspecified)", "LC retention time [min]": 11.3}
{"compound": "CC12CCC3c4ccc(O)c(O)c4CCC3C1CCC2O (stereo unspecified)", "LC retention time [min]": 7.61}

* * *

- experiment notes: Phenomenex Kinetex C18, 150 × 2.1 mm, 1.7 µm, 30 °C, 0.3 mL/min; A: water + 0.1% formic acid; B: acetonitrile + 0.1% formic acid; gradient (min/%B) 0/2 14/100 17/100 17/2 25/2
- conditions: stereoisomer not certain
The label depends only on LC retention time: yes if it is at least 9 min, no if it is smaller.

{"compound": "CC12CCC3C(CCC4=CC(=O)CCC43C)C1CC(O)C2=O (stereo not drawn)", "class assignment": "no"}
{"compound": "COc1c(O)ccc2c1CCC1C2CCC2(C)C(=O)CCC12 (stereo not drawn)", "class assignment": "yes"}
{"compound": "CC(=O)C1(O)CCC2C3CC=C4CC(O)CCC4(C)C3CCC21C (stereo not drawn)", "class assignment": "yes"}
{"compound": "CC12CCC3c4ccc(OS(=O)(=O)O)cc4CCC3C1CCC2=O (stereo not drawn)", "class assignment": "no"}
{"compound": "CC12CCC(=O)C=C1CCC1C2C(=O)CC2(C)C(C(=O)CO)CCC12 (stereo not drawn)", "class assignment": "no"}
{"compound": "CC12CCC(=O)C=C1CCC1C2CCC2(C)C1CCC2(O)CCO (stereo not drawn)", "class assignment": "yes"}
{"compound": "CC12CCC3C(C(O)CC4CC(O)CCC43C)C1CC(O)C2 (stereo not drawn)", "class assignment": "no"}
{"compound": "CC12CCC(O)CC1CCC1C2C(O)CC2(C=O)C(C(=O)CO)CCC12 (stereo not drawn)", "class assignment": "no"}
{"compound": "CC12CCC(O)CC1CCC1C2CC(O)C2(C)CCC(O)C12 (stereo not drawn)", "class assignment": "no"}
{"compound": "CC12CCC3c4ccc(O)cc4CCC3C1C(O)CC2O (stereo not drawn)", "class assignment": "no"}
{"compound": "CC12CCC3c4ccc(O)cc4CCC3C1CCC2=O (stereo not drawn)", "class assignment": "yes"}
{"compound": "CC12CC(=O)C3C(CCC4=CC(=O)CCC43C)C1CCC2=O (stereo not drawn)", "class assignment": "no"}
{"compound": "CC(=O)C1C(O)CC2C3CC=C4CC(O)CCC4(C)C3CCC21C (stereo not drawn)", "class assignment": "yes"}
{"compound": "CC12CCC3c4cc(O)c(O)cc4CCC3C1CCC2O (stereo not drawn)", "class assignment": "no"}
{"compound": "CC12CCC3c4ccc(O)c(O)c4CCC3C1CCC2=O (stereo not drawn)", "class assignment": "no"}
{"compound": "CC12CC(=O)C3C(CCC4CC(O)CCC43C)C1CCC2C(O)CO (stereo not drawn)", "class assignment": "no"}
{"compound": "CC12CCC(O)CC1CCC1C2CCC2(C)C(C(=O)CO)CCC12 (stereo not drawn)", "class assignment": "yes"}
{"compound": "CC12CCCC1C1CCC3CC(O)CCC3(C)C1CC2 (stereo not drawn)", "class assignment": "yes"}
{"compound": "CC12CCC(=O)C=C1CC(O)C1C2CCC2(C)C(O)CCC12 (stereo not drawn)", "class assignment": "no"}
{"compound": "CC12CCC3c4cc(O)c(O)cc4CCC3C1CCC2=O (stereo not drawn)", "class assignment": "no"}

* * *

- experiment notes: Phenomenex Kinetex C18, 150 × 2.1 mm, 1.7 µm, 30 °C, 0.3 mL/min; A: water + 0.1% formic acid; B: acetonitrile + 0.1% formic acid; gradient (min/%B) 0/2 14/100 17/100 17/2 25/2
- conditions: stereoisomer not certain

{"compound": "CC(=O)C1CCC2C3CC=C4CC(O)CCC4(C)C3CCC12C (stereo not given)", "reading unit": "min", "LC retention time": 13}
{"compound": "CC(=O)C1CCC2C3C(O)C=C4CC(O)CCC4(C)C3CCC12C (stereo not given)", "reading unit": "min", "LC retention time": 8.93}
{"compound": "CC12CCC(=O)C=C1CCC1C2CCC2(C)C(OS(=O)(=O)O)CCC12 (stereo not given)", "reading unit": "min", "LC retention time": 9.81}
{"compound": "CC12CCC3C(C(O)CC4CC(O)CCC43C)C1CCC2=O (stereo not given)", "reading unit": "min", "LC retention time": 8.74}
{"compound": "CC12CCC3c4ccc(O)cc4C(=O)CC3C1CC(O)C2O (stereo not given)", "reading unit": "min", "LC retention time": 6.59}
{"compound": "CC12C=CC(=O)CC1CCC1C2CCC2(C)C(O)CCC12 (stereo not given)", "reading unit": "min", "LC retention time": 9.97}
{"compound": "CC12CCC(=O)CC1CCC1C2CCC2(C)C(C(=O)CO)CCC12 (stereo not given)", "reading unit": "min", "LC retention time": 11.6}
{"compound": "CC12CCCC1C1CC(O)C3(O)CC(O)CCC3(C)C1CC2 (stereo not given)", "reading unit": "min", "LC retention time": 10.5}
{"compound": "CC12CCC3C(CC=C4CC(OS(=O)(=O)O)CCC43C)C1CCC2=O (stereo not given)", "reading unit": "min", "LC retention time": 9.91}
{"compound": "CC(O)C1(O)CCC2C3CCC4=CC(=O)CCC4(C)C3CCC21C (stereo not given)", "reading unit": "min", "LC retention time": 9.92}
{"compound": "CC(O)C1CCC2C3CCC4=CC(=O)CCC4(C)C3CCC12C (stereo not given)", "reading unit": "min", "LC retention time": 12}
{"compound": "CC12CCC3C4=C(CCC3C1CCC2O)C(=O)C(=O)C=C4 (stereo not given)", "reading unit": "min", "LC retention time": 7.81}
{"compound": "CC12CCC(=O)C=C1CCC1C2C(O)CC2(CO)C1CCC2(O)C(=O)CO (stereo not given)", "reading unit": "min", "LC retention time": 6.52}
{"compound": "CC12CCC(O)CC1CCC1C2C2CC3(C(O)O2)C(C(=O)CO)CCC13 (stereo not given)", "reading unit": "min", "LC retention time": 7.18}
{"compound": "CC(CCC(=O)O)C1CCC2C3CC=C4CC(O)CCC4(C)C3CCC12C (stereo not given)", "reading unit": "min", "LC retention time": 15.8}
{"compound": "CC12CCC3c4ccc(O)cc4CCC3C1C(O)CC2=O (stereo not given)", "reading unit": "min", "LC retention time": 7.7}
{"compound": "CC12CCC(=O)C=C1CCC1C2CCC2(C)C1CCC2(O)C(=O)CO (stereo not given)", "reading unit": "min", "LC retention time": 9.04}
{"compound": "CC12CCC(=O)C=C1CCC1C2C(O)CC2(C=O)C(C(=O)CO)CCC12 (stereo not given)", "reading unit": "min", "LC retention time": 7.15}
{"compound": "CC12CCC3c4ccc(O)cc4C(O)CC3C1CCC2=O (stereo not given)", "reading unit": "min", "LC retention time": 7.97}
{"compound": "CC12CCC3C(CCC4=CC(=O)CCC43CO)C1CCC2O (stereo not given)", "reading unit": "min", "LC retention time": 7.3}
{"compound": "CC(C(=O)O)C1CCC2C3C(O)CC4CC(O)CCC4(C)C3CC(O)C12C (stereo not given)", "reading unit": "min", "LC retention time": 8.37}
{"compound": "O=CC12CC(O)C3C4CCC(=O)C=C4CCC3C1CCC2C(=O)CO (stereo not given)", "reading unit": "min", "LC retention time": 7.1}
{"compound": "CC12CCC(O)CC1CCC1C2C(=O)CC2(C)C1CCC2(O)C(=O)CO (stereo not given)", "reading unit": "min", "LC retention time": 8.38}
{"compound": "CC(=O)C1(O)CCC2C3CCC4=CC(=O)CCC4(C)C3C(O)CC21C (stereo not given)", "reading unit": "min", "LC retention time": 8.8}
{"compound": "CC12CCC3c4ccc(O)cc4CC(O)C3C1CCC2O (stereo not given)", "reading unit": "min", "LC retention time": 7.15}
{"compound": "CC(O)C1(O)CCC2C3CCC4CC(O)CCC4(C)C3CCC21C (stereo not given)", "reading unit": "min", "LC retention time": 11}
{"compound": "CC12CCC(O)CC1=CCC1C2CCC2(C)C1CCC2(O)C(=O)CO (stereo not given)", "reading unit": "min", "LC retention time": 8.44}
{"compound": "CC12CCC(=O)CC1CCC1C2CCC2(C)C(OS(=O)(=O)O)CCC12 (stereo not given)", "reading unit": "min", "LC retention time": 10.6}
{"compound": "CC12CCC3C(CCC4=CC(=O)CCC43C(=O)O)C1CCC2C(=O)CO (stereo not given)", "reading unit": "min", "LC retention time": 8.03}
{"compound": "CC12CCC3C(CCC4CC(OS(=O)(=O)O)CCC43C)C1CCC2=O (stereo not given)", "reading unit": "min", "LC retention time": 10.5}
